All values here come from ChEMBL document CHEMBL1139272.

The entries below are paired with their reported inhibition.
# TEST METHOD NOTES: Binding affinity to NEK at 10 uM
PROPERTY LABEL: inhibition (%)

> print(dat)
                           structure.smiles  test.value
1  O=C(O)CCCO/N=C/c1cc(C(=O)NOCCO)c(Nc2ccc(I)cc2F)c(F)c1F          25
2  O=C(NOCCO)c1cc(/C=N/OCCO)c(F)c(F)c1Nc1ccc(I)cc1F           0
3  COCCCNC(=O)N/N=C/c1cc(C(=O)NOCCO)c(Nc2ccc(I)cc2F)c(F)c1F           0
4     O=C(NOCCO)c1ccc(F)c(F)c1Nc1ccc(I)cc1F           2
5  O=C(NOCCO)c1cc(COCCO)c(F)c(F)c1Nc1ccc(I)cc1F          13
6  O=C(O)c1ccc(CO/N=C/c2cc(C(=O)NOCCO)c(Nc3ccc(I)cc3F)c(F)c2F)o1          20
